Assay: S. typhi counter-screen signal inhibition – fluorescence, 4 h, counter-screen for PhoP regulon inhibitor project, dose response (AID 2384)
Settings: S. typhi GFP reporter counter-screen; series mostly up to 150 µM
Screen size: about 2,300 compounds; about 1,100 (48%) were called active. So high a share suggests a set chosen from earlier hits. The list shows a part of the results. Results with a measured potency or affinity are listed apart.
propertyLabel: inhibition

[
  {
    "compound": "Cc1c(C)n(C)c2ccc(C(=O)NCc3cccs3)cc12",
    "inhibition": "inactive"
  },
  {
    "compound": "CCCC(c1nnnn1Cc1ccc(OC)cc1)N1CCN(c2ccccc2OC)CC1 (stereo unspecified)",
    "inhibition": "inactive"
  },
  {
    "compound": "COc1ccc(C(=O)O/N=C2\\C(=O)N(C)c3ccccc32)cc1",
    "inhibition": "inactive"
  },
  {
    "compound": "CCNC(=S)N1CCN(CC)CC1",
    "inhibition": "inactive"
  },
  {
    "compound": "Cc1ccc(S(=O)(=O)N(Cc2n[nH]c(=S)n2-c2ccccc2)c2ccccc2)cc1",
    "inhibition": "inactive"
  },
  {
    "compound": "Cc1ccc2nc(/C(C#N)=C\\c3ccc(N4CCCCC4)c([N+](=O)[O-])c3)[nH]c2c1",
    "inhibition": "17.9% [at 9.38 µM] (inactive)"
  },
  {
    "compound": "CC(/C=C\\c1cccnc1)=C/C(=O)O",
    "inhibition": "inactive"
  },
  {
    "compound": "CC1CC1C(=O)Nc1nc2ccc(S(C)(=O)=O)cc2s1 (stereo unspecified)",
    "inhibition": "inactive"
  }
]

input: What value of inhibition has been recorded for this entry: CC(C)n1cnnc1SCC(=O)Nc1ccc(Br)cc1F
output: inactive

input: What value of inhibition has been recorded for this entry: O=C(Nc1ccc(Br)cc1)N1CCCCC1
output: inactive

input: What value of inhibition has been recorded for this entry: COc1ccccc1Oc1coc2c(CN3CCN(C)CC3)c(O)ccc2c1=O
output: inactive
